Source of measurements: patent US10626087B2

- assayed system: NDM-1 (Klebsiella pneumoniae)
- assay text: Inhibition of NDM-1 assay (CHROMACEF hydrolysis, absorbance at 442 nm)
- Format: biochemical
- condition set: *estimated or actual from a single point; target not given, values match the NDM-1 IC50 column; read-out: IC50 μM*
Item-by-item account of log10(IC50)
property name: log10(IC50) (log10 of the value in µM)

# compound, property name, test value
records = [
    ("CC(=O)N1CCc2cc(Cl)c(S(=O)(=O)NC(=O)CC(O)c3ccccc3)cc21 (centres unmarked)", "log10(IC50)", 2.00),
    ("CC(=O)N1CCc2cc(Cl)c(S(=O)(=O)/C=C(\\N)CC(O)c3ccccc3)cc21 (centres unmarked)", "log10(IC50)", 0.48),
    ("CC(=O)NS(=O)(=O)c1ccc2c(c1)N(C(C)=O)CC2", "log10(IC50)", 2.48),
    ("CC(=O)N1CCc2cc(Br)c(S(=O)(=O)NC(=O)CC(C)(C)O)cc21", "log10(IC50)", 0.94),
    ("CC(=O)N1CCc2cc(Br)c(S(=O)(=O)/N=C(\\N)Cc3ccccn3)cc21", "log10(IC50)", 1.15),
    ("CC(=O)N1CCc2cc(Br)c(S(=O)(=O)NC(=O)CC(O)c3ccccc3)cc21 (centres unmarked)", "log10(IC50)", 2.00),
    ("CC(=O)N1CCc2cc(Br)c(S(=O)(=O)/N=C(\\N)CC(C)(C)O)cc21 [drawing 104]", "log10(IC50)", 1.34),
    ("CC(=O)N1CCc2cc(Br)c(S(=O)(=O)/N=C(\\N)Cc3ccccc3)cc21 [drawing 109]", "log10(IC50)", 2.04),
]

----------
- assayed system: NDM-1 (Klebsiella pneumoniae)
property name: Ki (µM)

# compound, assayed system, property name, test value
measured = [
    ("CC(=O)N1CCc2cc(Br)c(S(=O)(=O)/N=C(\\N)CC(C)(C)O)cc21 [drawing 104]", "NDM-1 (Klebsiella pneumoniae)", "Ki", 6),
]

----------
- assayed system: NDM-1 (Klebsiella pneumoniae, UniProt C7C422)
- Sequence (C7C422 36-270 limits assumed, looked up): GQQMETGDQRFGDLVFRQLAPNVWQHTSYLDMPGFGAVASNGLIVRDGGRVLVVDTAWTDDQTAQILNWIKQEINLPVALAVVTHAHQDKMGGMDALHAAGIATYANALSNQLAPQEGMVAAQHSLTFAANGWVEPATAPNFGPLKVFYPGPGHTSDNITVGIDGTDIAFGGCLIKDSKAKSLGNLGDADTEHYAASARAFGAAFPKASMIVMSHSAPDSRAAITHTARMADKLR
- assay text: Inhibition of NDM-1 assay (CHROMACEF hydrolysis, absorbance at 442 nm)
- Assay type: biochemical
- condition set: at 50 μM
property name: inhibition at 50 µM

# compound, test value
measured = [
    ("CC(=O)N1CCc2cc(Br)c(S(=O)(=O)/N=C(\\N)CCO)cc21", "90.3%"),
    ("CC(=O)N1CCc2cc(Br)c(S(=O)(=O)NC(=O)CC(O)c3ccccc3)cc21 (centres unmarked)", "28.8%"),
    ("CC(=O)N1CCc2cc(Br)c(S(=O)(=O)/N=C(\\N)CC3(O)CCCCC3)cc21", "35%"),
    ("CC(=O)N1CCc2cc(Br)c(S(=O)(=O)NC(=O)CC(C)(C)O)cc21", "93%"),
    ("CC(=O)N1CCc2cc(Cl)c(S(=O)(=O)NC(=O)CC(O)c3ccccc3)cc21 (centres unmarked)", "31.9%"),
    ("CC(=O)N1CCc2cc(Cl)c(S(=O)(=O)/N=C(\\N)CCO)cc21", "99%"),
    ("CC(=O)N1CCc2cc(Br)c(S(=O)(=O)/N=C(\\N)CC3(O)CCCC3)cc21", "42%"),
    ("CC(=O)N1CCc2cc(F)c(S(=O)(=O)NC(=O)CC(O)c3ccccc3)cc21 (centres unmarked)", "12.8%"),
    ("CN/C(CC(C)(C)O)=N\\S(=O)(=O)c1cc2c(cc1Br)CCN2C(C)=O", "54.4%"),
    ("CC(=O)N1CCc2cc(Cl)c(S(=O)(=O)/N=C(\\N)CC(C)(C)O)cc21", "32.7%"),
    ("CC(=O)N1CCc2cc(Br)c(S(=O)(=O)/N=C(\\N)Cc3ccccn3)cc21", "97%"),
]
